Assay: Volume of distribution at steady state in mouse at 1 mg/kg, iv
Type: ADME, organism-based
Conditions: in vivo, read-out: Vdss
Measured Vd of individual entries
Quick reminder: number only, in L/kg, skip the unit.

Problem: Note Vd for the molecule shown: CCNC(=O)c1cc2c(-c3cc(S(=O)(=O)CC)ccc3Oc3c(C)cccc3C)cn(C)c(=O)c2[nH]1
Result: 0.8

Attention now shifts to the item below.
Problem: Note Vd for the molecule shown: CCNC(=O)c1cc2c(-c3cc(C(C)(C)O)ccc3Oc3c(C)cc(F)cc3C)cn(C)c(=O)c2[nH]1
Result: 1.3

###

Experiment: Unbound hepatic clearance in human liver microsomes
Assay type: ADME, Microsome
Categorize each record by its CL free using c1 = under 100 mL/min/kg, c2 = from 100 mL/min/kg up to 600 mL/min/kg, c3 = 600 mL/min/kg and over

Problem: // bin(item) where item = CCNC(=O)c1cc2c(-c3cc(S(=O)(=O)CC)ccc3Oc3c(C)cccc3C)cn(C)c(=O)c2[nH]1
Result: c1

Problem: // bin(item) where item = CCNC(=O)c1cc2c(-c3cc(NC(C)=O)ccc3Oc3c(C)cccc3C)cn(C)c(=O)c2[nH]1
Result: c1

Problem: // bin(item) where item = Cc1cc(F)cc(C)c1Oc1ccc(C(C)(C)O)cc1-c1cn(C)c(=O)c2[nH]c(C(=O)NC(C)(C)C(F)(F)F)cc12
Result: c3

Problem: // bin(item) where item = CCNC(=O)c1cc2c(-c3cc(S(=O)(=O)CC)ccc3-c3ccccc3C)cn(C)c(=O)c2[nH]1
Result: c2

Problem: // bin(item) where item = CCNC(=O)c1cc2c(-c3cc(S(C)(=O)=O)ccc3Oc3ccc(F)cc3F)cn(C)c(=O)c2[nH]1
Result: c1

Problem: // bin(item) where item = CCNC(=O)c1cc2c(-c3cc(NS(=O)(=O)CC)ccc3Oc3c(C)cc(F)cc3C)cn(C)c(=O)c2[nH]1
Result: c2

Next:
Problem: // bin(item) where item = Cc1cccc(C)c1Oc1ccc(C(C)(C)O)cc1-c1cn(C)c(=O)c2[nH]c(C(=O)NC(C)(C)C)cc12
Result: c3

Problem: // bin(item) where item = CCNC(=O)c1cc2c(-c3cc(S(=O)(=O)CC)ccc3Oc3c(C)cccc3F)cn(C)c(=O)c2[nH]1
Result: c2

Problem: // bin(item) where item = CCN(C)C(=O)c1cc2c(-c3cc(S(C)(=O)=O)ccc3Oc3ccc(F)cc3F)cn(C)c(=O)c2[nH]1
Result: c1

Problem: // bin(item) where item = CCNC(=O)c1cc2c(-c3cc(C4(O)CCOCC4)ccc3Oc3c(C)cc(F)cc3C)cn(C)c(=O)c2[nH]1
Result: c3

Problem: // bin(item) where item = Cc1cc(F)cc(C)c1Oc1ccc(C(C)(C)O)cc1-c1cn(C)c(=O)c2[nH]c(C(=O)NC3(C)CC3(F)F)cc12 (stereo not drawn)
Result: c3

Problem: // bin(item) where item = CNC(=O)c1cc2c(-c3cc(C(C)(C)O)ccc3Oc3c(C)cc(F)cc3C)cn(C)c(=O)c2[nH]1
Result: c2

Problem: // bin(item) where item = CCNC(=O)c1cc2c(-c3cc(S(=O)(=O)CC)ccc3Oc3c(C)cccc3Cl)cn(C)c(=O)c2[nH]1
Result: c2

Problem: // bin(item) where item = CCNC(=O)c1cc2c(-c3cc(S(=O)(=O)CC)ccc3-c3cccc4cc[nH]c34)cn(C)c(=O)c2[nH]1
Result: c2

// data source = ChEMBL document CHEMBL4342522
